Let's look at some compounds and their measured inhibition at 1 µM.
Study system: panel of 255 wild-type kinases (Homo sapiens, UniProt Q00526)
Sequence (Q00526 whole entry): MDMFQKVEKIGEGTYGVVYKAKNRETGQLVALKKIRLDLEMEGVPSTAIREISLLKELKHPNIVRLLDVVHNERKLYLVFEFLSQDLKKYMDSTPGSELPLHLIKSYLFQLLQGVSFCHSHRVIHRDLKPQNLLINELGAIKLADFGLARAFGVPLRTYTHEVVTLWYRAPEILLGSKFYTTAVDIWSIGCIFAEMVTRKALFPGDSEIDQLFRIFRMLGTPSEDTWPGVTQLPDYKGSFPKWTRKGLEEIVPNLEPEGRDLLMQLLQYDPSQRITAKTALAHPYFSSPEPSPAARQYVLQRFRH
Experiment description: Kinase panel profiling at 1 µmol/L (MSA or IMAP), percentage inhibition
Assay type: biochemical
Test settings: CDK3/CycE1 kinase assay; 1 µmol/L single concentration; read-out: %-inhibition CDK3/CycE1
// note: answer is a bare numeric in %

Reference set (3 entries):
[
  {
    "Compound": "Cn1cc(-c2cc3c(N4CCN(c5ncc([C@@](C)(N)c6ccc(F)cc6)cn5)CC4)ncnn3c2)cn1 [avapritinib]",
    "Study system": "panel of 255 wild-type kinases (Homo sapiens, UniProt Q00526)",
    "inhibition at 1 µM / %": -2.7
  },
  {
    "Compound": "COc1ccc(CN2C3CC2CN(c2ccc(-c4cc(OCC(C)(C)O)cn5ncc(C#N)c45)cn2)C3)cn1 [selpercatinib]",
    "Study system": "panel of 255 wild-type kinases (Homo sapiens, UniProt Q00526)",
    "inhibition at 1 µM / %": 3.49
  },
  {
    "Compound": "COc1cc2ncnc(Nc3ccc(F)c(Cl)c3)c2cc1NC(=O)/C=C/CN1CCCCC1 [dacomitinib]",
    "Study system": "panel of 255 wild-type kinases (Homo sapiens, UniProt Q00526)",
    "inhibition at 1 µM / %": -1.66
  }
]

We now examine a further compound.
For the compound C[C@H](Nc1ncnc2nc[nH]c12)c1cc2cccc(Cl)c2c(=O)n1-c1ccccc1 [duvelisib] , what inhibition at 1 µM is on record? -0.613

* * *

Study system: panel of 255 wild-type kinases (Homo sapiens, UniProt Q16816)
Sequence (Q16816 whole entry): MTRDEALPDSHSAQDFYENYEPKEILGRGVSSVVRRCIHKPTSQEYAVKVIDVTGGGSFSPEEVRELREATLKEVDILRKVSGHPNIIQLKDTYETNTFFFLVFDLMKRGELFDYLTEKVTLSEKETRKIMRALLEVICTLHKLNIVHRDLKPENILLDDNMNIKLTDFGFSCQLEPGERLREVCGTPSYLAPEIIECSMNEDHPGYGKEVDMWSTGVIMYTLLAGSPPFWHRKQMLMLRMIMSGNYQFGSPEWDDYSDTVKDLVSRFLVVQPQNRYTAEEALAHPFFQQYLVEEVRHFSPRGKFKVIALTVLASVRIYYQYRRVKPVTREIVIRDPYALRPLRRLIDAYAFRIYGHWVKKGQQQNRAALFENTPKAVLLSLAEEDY
Experiment description: Kinase panel profiling at 1 µmol/L (MSA or IMAP), percentage inhibition
Assay type: biochemical
Test settings: kinase PHKG1; 1 µmol/L single concentration; read-out: %-inhibition at 1 µmol/L, PHKG1
The compounds listed here are annotated with their inhibition at 1 µM.
Returns: string containing the numeric result and its unit.

These recorded examples may help you get a feel for the data.
[
  {
    "Compound": "O=C(Nc1cnn2ccc(N3CCC[C@@H]3c3cc(F)ccc3F)nc12)N1CC[C@H](O)C1 [larotrectinib]",
    "inhibition at 1 µM": "1.81%"
  },
  {
    "Compound": "COC(=O)N[C@@H](C)CNc1nccc(-c2cn(C(C)C)nc2-c2cc(Cl)cc(NS(C)(=O)=O)c2F)n1 [encorafenib]",
    "inhibition at 1 µM": "3%"
  }
]

// query inhibition at 1 µM value for entry C[C@H](Nc1ncnc2nc[nH]c12)c1cc2cccc(Cl)c2c(=O)n1-c1ccccc1 [duvelisib] -1.8%

Do the same for CCn1c(=O)c(-c2cc(NC(=O)Nc3ccccc3)c(F)cc2Br)cc2cnc(NC)cc21 [ripretinib] please 1.76%

For COc1cc2ncnc(Nc3ccc(F)c(Cl)c3)c2cc1NC(=O)/C=C/CN1CCCCC1 [dacomitinib] then? 25%

* * *

Study system: panel of 255 wild-type kinases (Homo sapiens, UniProt Q9BUB5)
Sequence (Q9BUB5 whole entry): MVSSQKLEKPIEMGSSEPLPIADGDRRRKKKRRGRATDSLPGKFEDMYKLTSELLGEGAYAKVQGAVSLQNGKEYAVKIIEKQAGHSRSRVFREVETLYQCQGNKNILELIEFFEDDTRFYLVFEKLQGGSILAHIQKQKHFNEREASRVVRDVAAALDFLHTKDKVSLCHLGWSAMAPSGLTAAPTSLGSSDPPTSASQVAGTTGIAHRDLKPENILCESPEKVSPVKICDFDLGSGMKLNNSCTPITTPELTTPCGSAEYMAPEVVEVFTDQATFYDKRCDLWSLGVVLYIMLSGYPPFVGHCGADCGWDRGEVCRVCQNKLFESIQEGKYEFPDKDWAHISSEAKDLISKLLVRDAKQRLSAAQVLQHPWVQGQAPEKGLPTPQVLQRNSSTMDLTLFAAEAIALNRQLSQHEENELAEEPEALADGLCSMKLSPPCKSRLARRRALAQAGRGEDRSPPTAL
Experiment description: Kinase panel profiling at 1 µmol/L (MSA or IMAP), percentage inhibition
Type: biochemical
Test settings: MNK1; 1 µmol/L single concentration; read-out: %-inhibition, MNK1
# key: entry, value: inhibition at 1 µM
Provide the reading as a plain figure in %.

Example results:
[
  {
    "Compound": "C[C@H](Nc1ncnc2nc[nH]c12)c1cc2cccc(Cl)c2c(=O)n1-c1ccccc1 [duvelisib]",
    "Study system": "panel of 255 wild-type kinases (Homo sapiens, UniProt Q9BUB5)",
    "Readout kind": "inhibition at 1 µM",
    "Experimental result": 0.446
  },
  {
    "Compound": "COC(=O)N[C@@H](C)CNc1nccc(-c2cn(C(C)C)nc2-c2cc(Cl)cc(NS(C)(=O)=O)c2F)n1 [encorafenib]",
    "Study system": "panel of 255 wild-type kinases (Homo sapiens, UniProt Q9BUB5)",
    "Readout kind": "inhibition at 1 µM",
    "Experimental result": 4.33
  },
  {
    "Compound": "Cc1cc(Nc2ncnc3ccc(NC4=NC(C)(C)CO4)cc23)ccc1Oc1ccn2ncnc2c1 [tucatinib]",
    "Study system": "panel of 255 wild-type kinases (Homo sapiens, UniProt Q9BUB5)",
    "Readout kind": "inhibition at 1 µM",
    "Experimental result": -1.41
  },
  {
    "Compound": "O=C(Nc1cnn2ccc(N3CCC[C@@H]3c3cc(F)ccc3F)nc12)N1CC[C@H](O)C1 [larotrectinib]",
    "Study system": "panel of 255 wild-type kinases (Homo sapiens, UniProt Q9BUB5)",
    "Readout kind": "inhibition at 1 µM",
    "Experimental result": -5.37
  },
  {
    "Compound": "CN1CCN(c2ccc(C(=O)Nc3n[nH]c4ccc(Cc5cc(F)cc(F)c5)cc34)c(NC3CCOCC3)c2)CC1 [entrectinib]",
    "Study system": "panel of 255 wild-type kinases (Homo sapiens, UniProt Q9BUB5)",
    "Readout kind": "inhibition at 1 µM",
    "Experimental result": -1
  },
  {
    "Compound": "Cn1cc(-c2cc3c(N4CCN(c5ncc([C@@](C)(N)c6ccc(F)cc6)cn5)CC4)ncnn3c2)cn1 [avapritinib]",
    "Study system": "panel of 255 wild-type kinases (Homo sapiens, UniProt Q9BUB5)",
    "Readout kind": "inhibition at 1 µM",
    "Experimental result": 72
  },
  {
    "Compound": "C[C@H]1Oc2cc(cnc2N)-c2c(nn(C)c2C#N)CN(C)C(=O)c2ccc(F)cc21 [lorlatinib]",
    "Study system": "panel of 255 wild-type kinases (Homo sapiens, UniProt Q9BUB5)",
    "Readout kind": "inhibition at 1 µM",
    "Experimental result": 6
  }
]

As a next step, examine the compound that follows.
Fill in: inhibition at 1 µM of Cn1cnc2c(F)c(Nc3ccc(Br)cc3F)c(C(=O)NOCCO)cc21 [binimetinib] is ___ 1.8
